Kindly state Ratio for each of the entries shown.
target: UniProt:P15559
Sequence (P15559 whole entry): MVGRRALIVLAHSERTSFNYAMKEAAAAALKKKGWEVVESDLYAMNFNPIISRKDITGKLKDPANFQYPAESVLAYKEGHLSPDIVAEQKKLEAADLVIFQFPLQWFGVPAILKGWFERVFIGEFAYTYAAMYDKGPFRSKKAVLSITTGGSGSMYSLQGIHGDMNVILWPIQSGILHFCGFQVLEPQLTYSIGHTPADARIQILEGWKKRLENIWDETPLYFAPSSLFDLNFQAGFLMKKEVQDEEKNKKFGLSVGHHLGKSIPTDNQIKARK
testName: The substrate specificity obtained from the ratio of Vmax to KM for human DT-diaphorase (from non-small-cell lung NCI-H460 cell line)
Assay type: cell-based
Please give only the number in your answer, with no unit.

Per the records, this molecule ( CCOC(=O)c1[nH]c2c(c1CO)C(=O)C(N1CC1)=CC2=O ) has Ratio equal to 4.3e+06

Briefly, Ratio measured for Cn1c(CO)c(CO)c2c1C(=O)C=C(N1CC1)C2=O : 302000

# Ratio of CC(=O)OC1CCc2c1[nH]c1c2C(=O)C=C(N2CC2)C1=O (stereo unspecified) = 802000

What the record says about O=C1C(N2CC2)=CC(=O)c2c1[nH]c(CO)c2CO : Ratio is 274000

Ratio reading for CC(=O)OC1CCc2c3c(n(C(C)=O)c21)C(=O)C(C)=C(N1CC1)C3=O (stereo unspecified) : 132000

Record CC(=O)OCc1[nH]c2c(c1COC(C)=O)C(=O)C(N1CC1)=CC2=O . Reported Ratio: 172000

# Ratio (molecule: O=C1C=C(N2CC2)C(=O)c2c1[nH]c(CO)c2CO ) is 587000

The reported Ratio of the molecule CC1=C(N2CC2)C(=O)c2c([nH]c(CO)c2CO)C1=O was 81500

Short answer for CC(=O)OC1CCc2c3c(n(C)c21)C(=O)C(N1CC1)=C(C)C3=O (stereo unspecified) : Ratio was 30000

Measured Ratio of CC1=C(N2CC2)C(=O)c2c(c(CO)c(CO)n2C)C1=O : 41700

Item: CC(=O)OC1CCc2c1[nH]c1c2C(=O)C(C)=C(N2CC2)C1=O (stereo unspecified) | Ratio: 160000

# Ratio (molecule: CC1=C(N2CC2)C(=O)c2c(c3c(n2C)C(O)CC3)C1=O (stereo unspecified) ) is 85500

Lab book: Ratio of O=C1C(N2CC2)=CC(=O)c2c1[nH]c1c2CCC1O (stereo unspecified) noted as 128000

So, O=C1C=C(N2CC2)C(=O)c2c1[nH]c1c2CCC1O (stereo unspecified) ? Its Ratio was 405000

// Ratio lookup, molecule = CCOC(=O)c1[nH]c2c(c1CO)C(=O)C(N1CC1)=C(C)C2=O , result: 403000

Lab note: CC(=O)OC1CCc2c1[nH]c1c2C(=O)C(N2CC2)=CC1=O (stereo unspecified) gave Ratio of 651000

Record CC(=O)OC1CCc2c1[nH]c1c2C(=O)C(N2CC2)=C(C)C1=O (stereo unspecified) . Reported Ratio: 65500

Record CCOC(=O)c1[nH]c2c(c1COC(C)=O)C(=O)C(N1CC1)=CC2=O , field Ratio: 722000

The recorded Ratio for entry CC(=O)OC1CCc2c3c(n(C(C)=O)c21)C(=O)C=C(N1CC1)C3=O (stereo unspecified) equals 705000

For record CC1=C(N2CC2)C(=O)c2c(CO)c(CO)n(C)c2C1=O the listed Ratio is 32600

The value of Ratio measured for the molecule CC(=O)OC1CCc2c3c(n(C(C)=O)c21)C(=O)C(N1CC1)=C(C)C3=O (stereo unspecified) turned out to be 56200

The reported Ratio of the molecule CC(=O)OC1CCc2c3c(n(C(C)=O)c21)C(=O)C(N1CC1)=CC3=O (stereo unspecified) was 234000

Looking up CC(=O)OCc1[nH]c2c(c1COC(C)=O)C(=O)C(C)=C(N1CC1)C2=O , I found its Ratio recorded as 158000

# Ratio (molecule: CC1=C(N2CC2)C(=O)c2c([nH]c3c2CCC3O)C1=O (stereo unspecified) ) is 147000

Lab note: measured Ratio of CC1=C(N2CC2)C(=O)c2[nH]c(CO)c(CO)c2C1=O was 106000

Reported Ratio of CC1=C(N2CC2)C(=O)c2[nH]c3c(c2C1=O)CCC3O (stereo unspecified) : 142000

---

System: NCI-H460
testName: Concentration of the drug required for total growth inhibition against NSC H460 cell line.
Assay type: functional
protocolConditions: Homo sapiens, read-out: Log TGI (converted)
measurementType: TGI (nM)
Respond numerically; units are nM and should not be typed.

Recorded TGI (compound CC(=O)OC1CCc2c3c(n(C(C)=O)c21)C(=O)C(N1CC1)=C(C)C3=O (stereo unspecified) ): 437

Recorded result, CCOC(=O)c1[nH]c2c(c1COC(C)=O)C(=O)C(N1CC1)=CC2=O , TGI: 170

TGI reading for CCOC(=O)c1[nH]c2c(c1CO)C(=O)C(N1CC1)=CC2=O : 100

TGI reported for this compound CC1=C(N2CC2)C(=O)c2[nH]c3c(c2C1=O)CCC3O (stereo unspecified) : 107

Form field TGI, entry CCOC(=O)c1[nH]c2c(c1CO)C(=O)C=C(N1CC1)C2=O : 4070

For this compound ( CCOC(=O)c1[nH]c2c(c1CO)C(=O)C(N1CC1)=C(C)C2=O ), measured TGI is 10.2

TGI reading for CC(=O)OC1CCc2c1[nH]c1c2C(=O)C(C)=C(N2CC2)C1=O (stereo unspecified) : 676

Reported TGI ( CC(=O)OCc1[nH]c2c(c1COC(C)=O)C(=O)C(C)=C(N1CC1)C2=O ) = 178

What the record says about CC1=C(N2CC2)C(=O)c2c([nH]c3c2CCC3O)C1=O (stereo unspecified) : TGI is 21.4

// field: TGI; key: CC1=C(N2CC2)C(=O)c2c(c3c(n2C)C(O)CC3)C1=O (stereo unspecified) ; value = 7590

Noted for Cn1c(CO)c(CO)c2c1C(=O)C=C(N1CC1)C2=O : its TGI reads 10

Recorded values, source ChEMBL document CHEMBL1134635.
